experiment: Oral bioavailability in mouse at 1 mg/kg or 0.5 mg/kg, iv; format: ADME, organism-based; details: in vivo
assay readout: bioavailability (%)
Give the value, in units of %, as a plain number.

stdin: Give me measured bioavailability, please, for this compound: CC1(Nc2nc(N)nc3cc(-c4cc[nH]n4)ccc23)CC1
stdout: 25

stdin: Give me measured bioavailability, please, for this compound: Nc1cc(NCCn2cccn2)c2ccc(-n3cccn3)cc2n1
stdout: 1.1

stdin: Give me measured bioavailability, please, for this compound: Nc1nc(NC2CC2)c2ccc(-c3cc[nH]n3)nc2n1
stdout: 7.5

stdin: Give me measured bioavailability, please, for this compound: CC1(Nc2nc(N)nc3nc(-c4cc[nH]n4)ccc23)CC1
stdout: 56
